Recorded log10 IC50, one value per entry.
- Target of assay: T1, human GIP receptor (human, UniProt P48546 22-466)
- T1 construct: whole, on cells; also called hGIPR
- T1 sequence (looked up): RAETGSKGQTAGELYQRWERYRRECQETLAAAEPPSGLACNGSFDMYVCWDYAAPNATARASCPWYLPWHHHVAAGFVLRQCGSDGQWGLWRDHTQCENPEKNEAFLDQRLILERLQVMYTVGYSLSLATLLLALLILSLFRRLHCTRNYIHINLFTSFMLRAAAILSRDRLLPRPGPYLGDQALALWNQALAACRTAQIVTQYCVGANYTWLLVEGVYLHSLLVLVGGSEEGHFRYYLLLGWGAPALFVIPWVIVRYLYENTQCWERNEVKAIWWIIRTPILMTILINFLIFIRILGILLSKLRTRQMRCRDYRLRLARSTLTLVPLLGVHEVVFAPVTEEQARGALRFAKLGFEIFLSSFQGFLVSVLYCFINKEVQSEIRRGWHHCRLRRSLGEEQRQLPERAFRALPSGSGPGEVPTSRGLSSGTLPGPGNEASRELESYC
- Protocol details: 125I-hGIP competition binding, COS-7 cells expressing hGIPR;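 further: nonspecific binding taken as radioligand bound by untransfected cells, binding buffer with or without 2% HSA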
Ends that are not written are not given here. * marks the point of attachment. Stearoyl = CCCCCCCCCCCCCCCCCC(=O)*; Palmitoyl = CCCCCCCCCCCCCCCC(=O)*; Lauroyl = CCCCCCCCCCCC(=O)*
Assay endpoint: log10 IC50 (log10 of the value in nM)

{"Binder": "EGTFISDYSIAMDKIHQQDFVNWLLAQK(Stearoyl)-NH2 [AT115 [hGIP(3-30)NH2-C18/30]]", "log10 IC50": 3.18}
{"Binder": "EGTFISDYSIAMDK(Lauroyl)IHQQDFVNWLLAQK-NH2 [AT102 [hGIP(3-30)NH2-C12/16]]", "log10 IC50": 1.77}
{"Binder": "TKISDYSIAMDKIHQQDFVNWLLAQK (C16-diacid fatty acyl on Lys 6 (GIP numbering); C-terminal amide) [AT168 [hGIP(5-30)NH2[F6K]-C16diacid/6]]", "log10 IC50": 1.68}
{"Binder": "EGTFISDYSIAMEKIAQQDFVNWLLAQK(C12 fatty acyl)-NH2 [AT130 [hGIP(3-30)NH2[D15E; H18A]-C12/30]]", "log10 IC50": 3.08}
{"Binder": "EGTFISDYSIAMDK(Palmitoyl)IHQQDFVNWLLAQK-NH2 [AT105 [hGIP(3-30)NH2-C16/16]]", "log10 IC50": 2.72}
{"Binder": "Palmitoyl-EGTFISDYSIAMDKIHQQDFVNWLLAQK-NH2 [AT104 [hGIP(3-30)NH2-C16/3]]", "log10 IC50": 1.88}
